Source: PubChem BioAssay AID1963843

# Test system: 616215-338-R-J1-PDC complex spheroid viability;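 also: spheroids exposed to compounds for one week before readout; percent viability relative to DMSO vehicle wells taken as 100%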
# TEST PROTOCOL: Anticancer human tumor 616215-338-R-J1-PDC patient-derived colon adenocarcinoma cell line growth inhibition [POLQ]
# MEASUREMENT PARAMETERS: second compound 1 µM; first compound 3.16 µM; active compounds read low
ENDPOINT NAME: viability, T/C

Lookup: Please report viability, T/C for the following compound: CCCS(=O)(=O)Nc1ccc(F)c(C(=O)c2c[nH]c3ncc(-c4ccc(Cl)cc4)cc23)c1F + COC1C(OC(N)=O)C(O)C(Oc2ccc3c(O)c(NC(=O)c4ccc(O)c(CC=C(C)C)c4)c(=O)oc3c2C)OC1(C)C
Found: 86.4%

Lookup: Please report viability, T/C for the following compound: O=C(c1cc(Cc2n[nH]c(=O)c3ccccc23)ccc1F)N1CCN(C(=O)C2CC2)CC1 + Cc1cccc(N(C)C(=O)C2C(O)CCN2c2nc(C)cc(C(F)(F)F)c2C#N)c1
Found: 102%

Lookup: Please report viability, T/C for the following compound: CC1COCCN1c1cc(-c2ccnn2C)c2ccnc(-c3ccn[nH]3)c2n1 (stereo unspecified) + Cc1cccc(N(C)C(=O)C2C(O)CCN2c2nc(C)cc(C(F)(F)F)c2C#N)c1
Found: 53%

Lookup: Please report viability, T/C for the following compound: CNCc1ccc(-c2[nH]c3cc(F)cc4c3c2CCNC4=O)cc1 + COC1C(OC(N)=O)C(O)C(Oc2ccc3c(O)c(NC(=O)c4ccc(O)c(CC=C(C)C)c4)c(=O)oc3c2C)OC1(C)C
Found: 109%

Lookup: Please report viability, T/C for the following compound: COc1cc2cc(C(=O)CCC(=O)O)sc2cc1OC + Cc1cccc(N(C)C(=O)C2C(O)CCN2c2nc(C)cc(C(F)(F)F)c2C#N)c1
Found: 106%

Lookup: Please report viability, T/C for the following compound: CCc1cc2c(N3CCc4c(cc(Cn5ccnc5)cc4-c4cn(C)nc4C(F)(F)F)C3=O)cc(C)nc2c(OC)n1 + Nc1ccc(C#CCN(C(=O)Cc2ncc(C(F)(F)F)cc2C(F)(F)F)c2ccc(F)cc2)nn1
Found: 51.8%

Lookup: Please report viability, T/C for the following compound: CC1COCCN1c1cc(C2(S(C)(=N)=O)CC2)nc(-c2ccnc3[nH]ccc23)n1 (stereo unspecified) + COC1C(OC(N)=O)C(O)C(Oc2ccc3c(O)c(NC(=O)c4ccc(O)c(CC=C(C)C)c4)c(=O)oc3c2C)OC1(C)C
Found: 94.2%

Lookup: Please report viability, T/C for the following compound: C=CC(=O)N1CCN(c2nc(=O)n(-c3c(C)ccnc3C(C)C)c3nc(-c4c(O)cccc4F)c(F)cc23)C(C)C1 (stereo unspecified) + Cc1cccc(N(C)C(=O)C2C(O)CCN2c2nc(C)cc(C(F)(F)F)c2C#N)c1
Found: 105%

Lookup: Please report viability, T/C for the following compound: CC1COCCN1c1cc(-c2ccnn2C)c2ccnc(-c3ccn[nH]3)c2n1 (stereo unspecified) + Nc1ccc(C#CCN(C(=O)Cc2ncc(C(F)(F)F)cc2C(F)(F)F)c2ccc(F)cc2)nn1
Found: 21.6%

Lookup: Please report viability, T/C for the following compound: C#Cc1c(F)ccc2cc(O)cc(-c3ncc4c(N5CC6CCC(C5)N6)nc(OCC56CCCN5CC(F)C6)nc4c3F)c12 (stereo unspecified) + Cc1cccc(N(C)C(=O)C2C(O)CCN2c2nc(C)cc(C(F)(F)F)c2C#N)c1
Found: 104%

Lookup: Please report viability, T/C for the following compound: COc1cc(C2c3cc4c(cc3C(OC3OC5COC(C)OC5C(O)C3O)C3COC(=O)C23)OCO4)cc(OC)c1O (stereo unspecified) + Nc1ccc(C#CCN(C(=O)Cc2ncc(C(F)(F)F)cc2C(F)(F)F)c2ccc(F)cc2)nn1
Found: 36%
